This collection of values is drawn from ChEMBL document CHEMBL1131425.

assayed.system: 5-hydroxytryptamine receptor 2C (Rattus norvegicus, UniProt P08909)
Sequence (P08909 whole entry): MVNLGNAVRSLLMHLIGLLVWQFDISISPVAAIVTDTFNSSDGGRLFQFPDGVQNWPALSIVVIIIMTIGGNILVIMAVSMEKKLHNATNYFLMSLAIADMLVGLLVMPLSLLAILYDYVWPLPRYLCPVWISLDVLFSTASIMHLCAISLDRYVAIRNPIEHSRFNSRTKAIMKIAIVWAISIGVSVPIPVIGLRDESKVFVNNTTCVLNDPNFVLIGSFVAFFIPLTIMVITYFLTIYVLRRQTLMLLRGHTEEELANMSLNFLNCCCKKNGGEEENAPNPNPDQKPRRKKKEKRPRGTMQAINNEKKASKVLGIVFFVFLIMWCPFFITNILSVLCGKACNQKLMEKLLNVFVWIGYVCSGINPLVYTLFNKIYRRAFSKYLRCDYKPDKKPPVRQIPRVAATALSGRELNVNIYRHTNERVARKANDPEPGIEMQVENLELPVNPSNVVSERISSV
experimental.protocol: Binding affinity against rat 5-hydroxytryptamine 2C receptor in A-9 cells.
pKi: −log10 of the molar value.
readout.kind: pKi

Here are 8 molecules together with their reported answers.
O=C(CCCN1CCC2(CC1)NCNC2=O)c1ccc(F)cc1 :: < 5.00
CN1CN(C)C2(CCN(CCCC(=O)c3ccc(F)cc3)CC2)C1=O :: < 5.00
CCCCN1CN(C)C2(CCN(CCCC(=O)c3ccc(F)cc3)CC2)C1=O :: < 5.00
NC(=O)C1(N)CCN(CCCC(=O)c2ccc(F)cc2)CC1 :: < 5.00
CC(C)N1CNC(=O)C12CCN(CCCC(=O)c1ccc(F)cc1)CC2 :: < 5.00
CN1CNC(=O)C12CCN(CCCC(=O)c1ccc(F)cc1)CC2 :: < 5.00
CCN1CN(C)C2(CCN(CCCC(=O)c3ccc(F)cc3)CC2)C1=O :: < 5.00
CCCN1CN(C)C2(CCN(CCCC(=O)c3ccc(F)cc3)CC2)C1=O :: < 5.00

Hey, can you go through the list below and give me pKi for every item?
1. O=C(CCCN1CCC2(CC1)C(=O)NCN2C1CCCCC1)c1ccc(F)cc1
2. CC(C)N1CN(C)C2(CCN(CCCC(=O)c3ccc(F)cc3)CC2)C1=O
3. CCN1CNC(=O)C12CCN(CCCC(=O)c1ccc(F)cc1)CC2
4. CN1CN(Cc2ccccc2)C(=O)C12CCN(CCCC(=O)c1ccc(F)cc1)CC2
5. CNC1(C(N)=O)CCN(CCCC(=O)c2ccc(F)cc2)CC1
6. CCCN1CN(C)C2(CCN(CCCOc3ccc(F)cc3)CC2)C1=O
7. CC(C)NC1(C(N)=O)CCN(CCCC(=O)c2ccc(F)cc2)CC1
8. NC(=O)C1(NC2CCCCC2)CCN(CCCC(=O)c2ccc(F)cc2)CC1

6.17
< 5.00
< 5.00
5.85
5.35
< 5.00
6.37
6.57

Could you tell me which pKi is on file for CN1CNC(=O)C12CCN(CCCOc1ccc(F)cc1)CC2 ?
< 5.00

---

assayed.system: 5-hydroxytryptamine receptor 2A (Rattus norvegicus, UniProt P14842)
Sequence (P14842 whole entry): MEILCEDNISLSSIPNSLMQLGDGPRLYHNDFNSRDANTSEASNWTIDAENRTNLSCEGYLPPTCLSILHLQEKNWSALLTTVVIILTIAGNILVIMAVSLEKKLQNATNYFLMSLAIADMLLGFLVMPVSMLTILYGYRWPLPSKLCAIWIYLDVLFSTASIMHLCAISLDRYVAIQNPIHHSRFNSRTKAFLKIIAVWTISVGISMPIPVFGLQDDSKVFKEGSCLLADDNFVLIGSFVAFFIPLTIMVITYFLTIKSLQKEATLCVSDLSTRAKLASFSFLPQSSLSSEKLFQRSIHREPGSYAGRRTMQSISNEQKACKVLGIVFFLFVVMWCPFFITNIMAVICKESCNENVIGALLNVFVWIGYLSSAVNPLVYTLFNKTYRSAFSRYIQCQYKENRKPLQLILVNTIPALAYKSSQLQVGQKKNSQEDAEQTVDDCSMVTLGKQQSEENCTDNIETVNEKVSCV
experimental.protocol: Binding affinity against rat 5-hydroxytryptamine 2A receptor in NIH3T3 cells.
Please go through the items and note down their Ki.
Quote the value and follow it with the unit of measurement.

Here are 5 compounds together with their reported answers.
CN1CNC(=O)C12CCN(CCCOc1ccc(F)cc1)CC2 :: 35 nM
CCCN1CN(C)C2(CCN(CCCOc3ccc(F)cc3)CC2)C1=O :: 19 nM
CNC1(C(N)=O)CCN(CCCC(=O)c2ccc(F)cc2)CC1 :: 130 nM
CN1CN(Cc2ccccc2)C(=O)C12CCN(CCCC(=O)c1ccc(F)cc1)CC2 :: 22 nM
CCN1CNC(=O)C12CCN(CCCC(=O)c1ccc(F)cc1)CC2 :: 170 nM

Let us move to another entry and its Ki.
Please provide the recorded Ki for O=C(CCCN1CCC2(CC1)C(=O)NCN2C1CCCCC1)c1ccc(F)cc1 , tested on 5-hydroxytryptamine receptor 2A (Rattus norvegicus, UniProt P14842).
0.7 nM
